Ref: the antibiotic and cytotoxicity screens of Wong et al. (2023)

Test system: HepG2
Test name: cytotoxicity call (relative viability < 0.9)
Experimental parameters: 10 µM
Among all 39,000 compounds or so, about 3,300 (8.5%) were called active. Only a selection was taken, and actives are over-represented in it overall.
Labels: active, inactive

# Compound, Assigned label
data = [
    ("CC(C)NC(=O)N(C)C[C@@H]1Oc2ccc(NS(=O)(=O)c3ccc(Cl)cc3)cc2CC(=O)N([C@@H](C)CO)C[C@H]1C", "inactive"),
    ("O=[N+]([O-])c1ccc(NCCNCCO)cc1", "inactive"),
    ("C[n+]1cc2c3c(ccc2c2ccc4cc5c(cc4c21)OCO5)OCO3.[Cl-]", "active"),
    ("O=C1COC[C@@H](c2ccccc2)N1", "inactive"),
    ("CO[C@H]1CN(C(=O)c2ccnnc2)[C@H]2COC[C@@H]12", "inactive"),
    ("O=C1NC2=C(C(=O)OC2)[C@H](c2ccccc2)N1", "active"),
    ("CO[C@H]1CN(C)C(=O)c2cc(NS(C)(=O)=O)ccc2OC[C@H](C)N(C(=O)C2CCOCC2)C[C@@H]1C", "inactive"),
    ("COc1ccc(NC(=O)Nc2ccc3c(c2)C(=O)N([C@@H](C)CO)C[C@H](C)[C@@H](CN(C)C(=O)Nc2c(C)noc2C)OCCCC[C@H](C)O3)cc1", "inactive"),
    ("COc1ccc(NC(=O)Nc2cccc3c2O[C@H](CN(C)Cc2ccc(C(F)(F)F)cc2)[C@@H](C)CN([C@@H](C)CO)C3=O)cc1", "inactive"),
    ("COc1ccc(S(=O)(=O)Nc2ccc3c(c2)CC(=O)N([C@@H](C)CO)C[C@@H](C)[C@H](CN(C)Cc2ccc(C(=O)O)cc2)O3)cc1", "inactive"),
    ("Cc1noc(C)c1S(=O)(=O)Nc1ccc2c(c1)C(=O)N([C@@H](C)CO)C[C@H](C)[C@H](CN(C)C(=O)Nc1cccc3ccccc13)OCCCC[C@H](C)O2", "inactive"),
    ("C[C@@H]1CN([C@@H](C)CO)C(=O)c2cc(NC(=O)Nc3ccc(F)cc3)ccc2O[C@@H](C)CCCCO[C@H]1CN(C)C(=O)CCCN(C)C", "inactive"),
    ("O=C1NC(=O)[C@@H](c2ccccc2)N1", "inactive"),
    ("COc1cc(NC(C)CCCN)c2ncccc2c1.O=P(O)(O)O.O=P(O)(O)O (stereo not drawn)", "active"),
    ("C[C@@H]1CCCCO[C@H](CN(C)C(=O)Nc2cccc3ccccc23)[C@@H](C)CN([C@@H](C)CO)C(=O)c2cc(N(C)C)ccc2O1", "inactive"),
    ("CCC(=O)Nc1ccc2c(c1)C(=O)N(C)C[C@@H](OC)[C@@H](C)CN(C(=O)CN1CCOCC1)[C@@H](C)CO2", "inactive"),
    ("O=C1c2ccccc2C(=O)c2c1ccc(O)c2O", "inactive"),
    ("O=C1c2ccccc2C(=O)c2c(NCCNCCO)ccc(NCCNCCO)c21", "active"),
]

====

Test system: HepG2
Test name: cytotoxicity call (relative viability < 0.9)
Experimental parameters: 10 µM
Screen size: about 39,000 compounds; about 3,300 (8.5%) were called active. Only a selection was taken, and actives are over-represented in it overall.
Labels: YES = active, NO = inactive

# Chemical smiles, Assigned label
data = [
    ("C[C@@H]1CN([C@H](C)CO)C(=O)Cc2cc(NC(=O)Nc3ccc(F)cc3)ccc2O[C@@H]1CN(C)CC1CCCCC1", "YES"),
    ("Cc1noc(C)c1NC(=O)N(C)C[C@H]1Oc2ccc(NS(=O)(=O)c3ccccc3)cc2C(=O)N([C@H](C)CO)C[C@H]1C", "NO"),
    ("COCC(=O)Nc1ccc2c(c1)C(=O)N(C)C[C@@H](OC)[C@@H](C)CN(Cc1ccccc1OC)[C@H](C)CO2", "NO"),
    ("CCC(=O)N(C)C[C@@H]1Oc2ncc(C#C[C@H](C)O)cc2C(=O)N([C@@H](C)CO)C[C@H]1C", "NO"),
]

====

Tested on: HepG2
Test name: cytotoxicity call (relative viability < 0.9)
Experimental parameters: 10 µM
Among all 39,000 compounds or so, about 3,300 (8.5%) were called active. The sample holds actives, similar compounds and a random draw of the others, so the mix is not that of the screen.
Labels: t (active), f (inactive)

# Chemical smiles, Assayed target, Assigned label
records = [
    ("COc1ccc(S(=O)(=O)Nc2ccc3c(c2)C(=O)N([C@@H](C)CO)C[C@@H](C)[C@H](CN(C)C(=O)c2ccccc2)OCCCC[C@H](C)O3)cc1", "HepG2", "f"),
    ("Cc1ccc(S(=O)(=O)N(C)C[C@@H]2Oc3ccc(N(C)C)cc3CC(=O)N([C@@H](C)CO)C[C@H]2C)cc1", "HepG2", "f"),
    ("C[C@@H]1CN([C@@H](C)CO)C(=O)c2cccc(NC(=O)c3cnccn3)c2O[C@@H]1CN(C)C(=O)Nc1ccccc1", "HepG2", "f"),
    ("CC(C)NC(=O)N(C)C[C@H]1OCCCC[C@H](C)Oc2ccc(NS(=O)(=O)c3cn(C)cn3)cc2C(=O)N([C@@H](C)CO)C[C@@H]1C", "HepG2", "f"),
    ("C[C@@H]1CN([C@@H](C)CO)C(=O)c2cc(NS(=O)(=O)c3ccc(Cl)cc3)ccc2O[C@@H](C)CCCCO[C@H]1CN(C)S(=O)(=O)c1ccccc1", "HepG2", "f"),
    ("C[C@@H]1CN([C@@H](C)CO)C(=O)c2cc(NC(=O)Cc3ccccc3)ccc2O[C@H]1CN(C)Cc1ccc(C(=O)Nc2ccccc2N)cc1", "HepG2", "f"),
    ("C[C@@H]1CN([C@@H](C)CO)C(=O)c2cc(NC(=O)Nc3ccc(C(F)(F)F)cc3)ccc2O[C@@H](C)CCCCO[C@@H]1CN(C)C(=O)Nc1cccc2ccccc12", "HepG2", "f"),
    ("CCN1CCCC[C@@H]1C(=O)O", "HepG2", "f"),
    ("CC(C)NC(=O)Nc1ccc2c(c1)C(=O)N([C@H](C)CO)C[C@H](C)[C@H](CN(C)C(=O)Nc1cccc3ccccc13)OCCCC[C@H](C)O2", "HepG2", "t"),
    ("C[C@@H]1CN([C@@H](C)CO)C(=O)c2cc(NC(=O)Nc3cccc4ccccc34)ccc2O[C@@H](C)CCCCO[C@H]1CN(C)C(=O)Nc1cccc2ccccc12", "HepG2", "f"),
    ("C[C@@H]1CCCCO[C@H](CN(C)C(=O)Nc2cccc3ccccc23)[C@H](C)CN([C@@H](C)CO)C(=O)c2cc(NC(=O)Nc3ccc(C(F)(F)F)cc3)ccc2O1", "HepG2", "t"),
    ("C[C@@H]1CCCCO[C@@H](CN(C)C(=O)c2ccncc2)[C@@H](C)CN([C@@H](C)CO)C(=O)c2cc(NC(=O)C3CCCCC3)ccc2O1", "HepG2", "f"),
    ("CN(C)c1ccc(C(=C2C=CC(=[N+](C)C)C=C2)c2ccc(N(C)C)cc2)cc1.[Cl-]", "HepG2", "t"),
    ("C[C@H](CO)N1C[C@H](C)[C@@H](CN(C)S(=O)(=O)c2cccs2)Oc2ccc(NC(=O)CCCN(C)C)cc2C1=O", "HepG2", "f"),
]

====

System: HepG2
Test name: cytotoxicity call (relative viability < 0.9)
Experimental parameters: 10 µM
Among all 39,000 compounds or so, about 3,300 (8.5%) were called active. The sample holds actives, similar compounds and a random draw of the others, so the mix is not that of the screen.
Labels: Y = active, N = inactive

# Compound, Assigned label
records = [
    ("C[C@@H]1CC[C@@]2(OC1)O[C@H]1C[C@H]3[C@H]4CC=C5C[C@@H](O[C@@H]6O[C@H](CO)[C@@H](O[C@@H]7O[C@@H](C)[C@H](O)[C@@H](O)[C@H]7O[C@@H]7O[C@@H](C)[C@H](O)[C@@H](O)[C@H]7O)[C@H](O)[C@H]6O)CC[C@]5(C)[C@@H]4CC[C@]3(C)[C@H]1[C@@H]2C", "Y"),
    ("CC(=O)Nc1ncc([N+](=O)[O-])s1", "N"),
    ("C[C@@H]1CC[C@@]2(OC1)O[C@H]1C[C@H]3[C@H]4C[C@@H](O)[C@H]5C[C@@H](O[C@@H]6O[C@H](CO)[C@H](O[C@@H]7O[C@H](CO)[C@@H](O)[C@H](O[C@@H]8OC[C@@H](O)[C@H](O)[C@H]8O)[C@H]7O[C@@H]7O[C@H](CO)[C@@H](O)[C@H](O)[C@H]7O)[C@H](O)[C@H]6O)CC[C@]5(C)[C@@H]4CC[C@]3(C)[C@H]1[C@@H]2C", "Y"),
    ("OC[C@@H]1O[C@H](O)[C@H](O)[C@H](O[C@@H]2O[C@H](CO)[C@H](O)[C@H](O[C@@H]3O[C@H](CO)[C@@H](O)[C@H](O)[C@@H]3O)[C@H]2O)[C@H]1O", "N"),
    ("CC(=O)OC1CCC2(C)C(CCC3C2CCC2(C)C3CC3OC4(CCC(C)CO4)C(C)C32)C1 (stereo not given)", "N"),
    ("CC(C)=CCC[C@](C)(O[C@@H]1O[C@H](CO[C@@H]2OC[C@@H](O)[C@H](O)[C@H]2O)[C@@H](O)[C@H](O)[C@H]1O)[C@H]1CC[C@]2(C)[C@@H]1[C@H](O)C[C@@H]1[C@@]3(C)CC[C@H](O[C@@H]4O[C@H](CO)[C@@H](O)[C@H](O)[C@H]4O)C(C)(C)[C@@H]3CC[C@]12C", "N"),
    ("CC(=O)Oc1ccccc1C(=O)Nc1ncc([N+](=O)[O-])s1", "Y"),
    ("C[C@H](CO)N1C[C@H](C)[C@@H](CN(C)S(=O)(=O)c2cccs2)Oc2ccc(NC(=O)Cn3cnnn3)cc2C1=O", "N"),
    ("COc1ccc(C(C)(C)N)cc1OC", "N"),
    ("C[C@@H]1CC[C@@]2(OC1)O[C@H]1C[C@H]3[C@H]4C[C@@H](O)[C@H]5C[C@@H](O[C@@H]6O[C@H](CO)[C@H](O[C@@H]7O[C@H](CO)[C@@H](O)[C@H](O[C@@H]8OC[C@@H](O)[C@H](O)[C@H]8O)[C@H]7O[C@@H]7O[C@H](CO)[C@@H](O[C@@H]8O[C@H](CO)[C@@H](O)[C@H](O)[C@H]8O)[C@H](O)[C@H]7O)[C@H](O)[C@H]6O)CC[C@]5(C)[C@@H]4CC[C@]3(C)[C@H]1[C@@H]2C", "Y"),
]
